tested on: DMS-273; assay: NCI tumour cell line growth inhibition, 48 h
The source made the active and inactive calls. No stated cut-off is given here; in the data, active = GI50 up to about 1.1 µM and inactive = higher.
readout_label: GI50

Example molecules with recorded GI50:
molecule	readout_label	value
COc1ccc2c(c1)[n+]([O-])c(C(=O)C/C(=N\NC(=O)C[N+](C)(C)C)C(=O)Nc1cc(Cl)ccc1Cl)c(C)[n+]2[O-]	GI50	> 100 µM (inactive)
COc1ccc2nc3cc(Cl)ccc3c(NCCC(=O)OCC(O)C(O)C(O[C@H](C)C(=O)NC(C)C(=O)NC(CCC(N)=O)C(=O)OCc3ccccc3)C(C=O)NC(C)=O)c2c1 (some centres undefined)	GI50	14.2 µM (inactive)
CCOC(=O)/C=C/c1c[nH]c(=O)[nH]c1=O	GI50	> 75 µM (inactive)

Input: Field request: GI50 | item: CC1=C[C@@H]2Cc3occc3C(C)(C)[C@@H]2CC1
Output: 13.6 µM (inactive)
